Target: Nociceptin receptor (Homo sapiens, UniProt P41146)
Sequence (P41146 whole entry): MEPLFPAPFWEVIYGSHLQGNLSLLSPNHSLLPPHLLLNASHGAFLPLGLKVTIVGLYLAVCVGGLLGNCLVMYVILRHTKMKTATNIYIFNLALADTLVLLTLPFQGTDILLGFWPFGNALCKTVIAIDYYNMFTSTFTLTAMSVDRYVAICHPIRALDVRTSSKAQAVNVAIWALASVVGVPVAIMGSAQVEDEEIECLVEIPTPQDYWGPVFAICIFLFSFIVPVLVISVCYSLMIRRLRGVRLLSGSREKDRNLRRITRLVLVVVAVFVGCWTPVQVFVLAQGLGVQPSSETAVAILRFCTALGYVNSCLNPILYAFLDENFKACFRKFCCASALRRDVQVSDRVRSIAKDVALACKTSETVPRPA
Test: Antagonist activity at human NOP receptor expressed in HEK293 cells assessed as inhibition of N/OFQ-induced [35S]GTPgammaS binding after 1.5 hrs by scintillation proximity assay
Label key: Yes means IC50 under 200 nM; No means IC50 of 200 nM or more.

compound	system_tested	assigned_label
Oc1ccc(Cl)c2c1CNC(CN1CCC3(CCc4ccccc43)CC1)C2 (centres undefined)	Nociceptin receptor (Homo sapiens, UniProt P41146)	Yes
c1ccc2c(c1)CC(CN1CCC3(CCc4ccccc43)CC1)CO2 (centres undefined)	Nociceptin receptor (Homo sapiens, UniProt P41146)	Yes
c1ccc2c(c1)CNC(CN1CCC3(CCc4ccccc43)CC1)C2 (centres undefined)	Nociceptin receptor (Homo sapiens, UniProt P41146)	No
c1ccc2c(c1)CCC(CN1CCC3(CCc4ccccc43)CC1)C2 (centres undefined)	Nociceptin receptor (Homo sapiens, UniProt P41146)	No
Oc1cccc2c1CNC(CN1CCC3(CCc4ccccc43)CC1)C2 (centres undefined)	Nociceptin receptor (Homo sapiens, UniProt P41146)	Yes
Cc1cc(F)ccc1C1CCN(CC2Cc3ccccc3CN2)CC1 (centres undefined)	Nociceptin receptor (Homo sapiens, UniProt P41146)	Yes
Oc1ccc(Br)c2c1CNC(CN1CCC3(CCc4ccccc43)CC1)C2 (centres undefined)	Nociceptin receptor (Homo sapiens, UniProt P41146)	Yes
Oc1ccc2c(c1)CC(CN1CCC3(CCc4ccccc43)CC1)NC2 (centres undefined)	Nociceptin receptor (Homo sapiens, UniProt P41146)	No
Cc1cc(F)ccc1C1CCN(CC2Cc3c(Cl)ccc(O)c3CN2)CC1 (centres undefined)	Nociceptin receptor (Homo sapiens, UniProt P41146)	Yes
